experimental.target: PIM1 transgenic cells (Ba/F3) (Homo sapiens, UniProt P11309)
Sequence (P11309 whole entry, change not shown): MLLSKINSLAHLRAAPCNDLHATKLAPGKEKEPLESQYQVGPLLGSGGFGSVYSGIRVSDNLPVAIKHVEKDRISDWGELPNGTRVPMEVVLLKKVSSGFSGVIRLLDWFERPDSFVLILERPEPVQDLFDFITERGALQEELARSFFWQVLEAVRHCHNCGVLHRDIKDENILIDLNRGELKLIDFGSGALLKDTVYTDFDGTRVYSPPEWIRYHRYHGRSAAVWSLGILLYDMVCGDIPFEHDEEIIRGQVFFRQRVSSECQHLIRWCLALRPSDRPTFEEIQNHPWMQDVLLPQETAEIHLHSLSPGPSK
protocol.summary: Proliferation inhibitory effect on PIM1 transgenic cells
Type: cell-based, mouse
measurement.context: proliferation inhibition, 72 hours, Cell Counting Kit-8, read-out: PIM1 IC50
Structures can show the parent of a compound that is named as a salt.
Response field label: string, one of y (GI50 strictly below 700 nM) or n.

compound: N[C@H]1CC[C@H](COc2cc(-c3n[nH]c(=O)o3)ccc2C(F)(F)F)CC1 [Example 240]
group: y

compound: C[C@H]1CNCC[C@H]1CNc1cc(-c2n[nH]c(=O)o2)ccc1C(F)(F)F [Example 141, hydrochloride]
group: y

compound: C[C@H](Nc1cc(-c2n[nH]c(=O)o2)ccc1C(F)(F)F)C1CCCNCCC1 [Example 162, hydrochloride]
group: y

compound: NC[C@H]1CC[C@H](Nc2cc(-c3n[nH]c(=O)o3)ccc2C(F)(F)F)CC1 [Example 37, hydrochloride]
group: y

compound: C[C@@H]1CNCC[C@@H]1[C@H](C)Nc1cc(-c2n[nH]c(=O)o2)ccc1OC(F)(F)F [Example 218]
group: y

compound: C[C@H]1CN([C@@H](C)C2CCNCC2)c2cc(-c3n[nH]c(=O)o3)cc(F)c2O1 [Example 251]
group: y

compound: O=c1[nH]nc(-c2ccc(Cl)c(NC[C@@H]3CCNC3)c2)o1 [Example 49, hydrochloride]
group: n

compound: CCC1(CNc2cc(-c3n[nH]c(=O)o3)ccc2C(F)(F)F)CCNCC1 [Example 122, hydrochloride]
group: y

compound: O=c1[nH]nc(-c2ccc(C(F)(F)F)c(NCCN3CCNCC3)c2)o1 [Example 65, dihydrochloride]
group: n

compound: N[C@H]1CC[C@H](CNc2cc(-c3n[nH]c(=O)o3)ccc2OC(F)(F)F)CC1 [Example 66, hydrochloride]
group: y

compound: C[C@H](Nc1cc(-c2n[nH]c(=O)o2)ccc1C(F)F)C1CCNCC1 [Example 90]
group: n

compound: C[C@@H]([C@H]1CC[C@H](N)CC1)N1CCOc2c(F)cc(-c3n[nH]c(=O)o3)cc21 [Example 249]
group: y
